Cited source: paper PMC8624133

- Tested on: C. fermentati
- PROTOCOL: EUCAST E. Def 7.3.2 microdilution
- Type: cell-based, Candida fermentati
- MEASUREMENT_PARAMETERS: n = 2
Starred links: 1 amine or outer side, 2 acyl side, 3 side chain; linkers in the order of their positions; H or OH if unused. Positions of bridges follow the written chain, without caps; N, C: chain ends. Non-standard residues stand in square brackets, D forms with d. Residues, ends and D or L forms follow the SMILES beside them. *: point of attachment. hTyr(3S-OH,4S-OH,3'-OSO3H) = N[C@H](C(=O)O)[C@H](O)[C@@H](O)c1ccc(O)c(OS(=O)(=O)O)c1; pTerphenylCO(4''-OnC5H11) = CCCCCOc1ccc(-c2ccc(-c3ccc(C(=O)*)cc3)cc2)cc1; Orn(4R-OH,5R-OH) = O=C([C@H](C[C@@H](O)[C@@H](O)N[*:3])N[*:1])[*:2]; hTyr(3S-OH,4S-OH) = N[C@H](C(=O)O)[C@H](O)[C@@H](O)c1ccc(O)cc1; Pro(3S-OH,4S-Me) = C[C@H]1CN[C@H](C(=O)O)[C@H]1O; X1 = CCCCCOc1ccc(-c2cc(-c3ccc(C(=O)*)cc3)no2)cc1; Gln(3R-OH) = NC(=O)C[C@@H](O)[C@H](N)C(=O)O; Hyp = O=C(O)[C@@H]1C[C@@H](O)CN1
Recorded GM values for a group of compounds are listed next.
ENDPOINT_NAME: GM (µg/mL)

{"COMPOUND": "OC(Cn1cncn1)(Cn1cncn1)c1ccc(F)cc1F [fluconazole]", "TARGET_UNDER_TEST": "C. fermentati", "VALUE_REPORTED": 2}
{"COMPOUND": "CCCCCOc1ccc(-c2ccc(-c3ccc(C(=O)N[C@H]4C[C@@H](O)[C@@H](O)NC(=O)[C@@H]5[C@@H](O)[C@@H](C)CN5C(=O)[C@H]([C@@H](C)O)NC(=O)[C@H]([C@H](O)[C@@H](O)c5ccc(O)cc5)NC(=O)[C@@H]5C[C@@H](O)CN5C(=O)[C@H]([C@@H](C)O)NC4=O)cc3)cc2)cc1 [anidulafungin] ({pTerphenylCO(4''-OnC5H11)}-[Orn(4R-OH,5R-OH)]T[Hyp][hTyr(3S-OH,4S-OH)]T[Pro(3S-OH,4S-Me)]; lactam 1-C)", "TARGET_UNDER_TEST": "C. fermentati", "VALUE_REPORTED": 0.25}
{"COMPOUND": "C[C@@H]1[C@H](O)[C@@H](C)/C=C/C=C/C=C/C=C/C=C/C=C/C=C/[C@H](O[C@@H]2O[C@H](C)[C@@H](O)[C@H](N)[C@@H]2O)C[C@@H]2O[C@](O)(C[C@@H](O)C[C@@H](O)[C@H](O)CC[C@@H](O)C[C@@H](O)CC(=O)O[C@H]1C)C[C@H](O)[C@H]2C(=O)O [amphotericin B]", "TARGET_UNDER_TEST": "C. fermentati", "VALUE_REPORTED": 0.125}
{"COMPOUND": "CCCCCOc1ccc(-c2cc(-c3ccc(C(=O)N[C@H]4C[C@@H](O)[C@@H](O)NC(=O)[C@@H]5[C@@H](O)[C@@H](C)CN5C(=O)[C@H]([C@H](O)CC(N)=O)NC(=O)[C@H]([C@H](O)[C@@H](O)c5ccc(O)c(OS(=O)(=O)O)c5)NC(=O)[C@@H]5C[C@@H](O)CN5C(=O)[C@H]([C@@H](C)O)NC4=O)cc3)no2)cc1 [micafungin] (X1-[Orn(4R-OH,5R-OH)]T[Hyp][hTyr(3S-OH,4S-OH,3'-OSO3H)][Gln(3R-OH)][Pro(3S-OH,4S-Me)]; lactam 1-C)", "TARGET_UNDER_TEST": "C. fermentati", "VALUE_REPORTED": 0.125}

----------
- Test system: C. albicans
- Assay type: cell-based, Candida albicans
Starred links: 1 amine or outer side, 2 acyl side, 3 side chain; linkers in the order of their positions; H or OH if unused. Positions of bridges follow the written chain, without caps; N, C: chain ends. Non-standard residues stand in square brackets, D forms with d. Residues, ends and D or L forms follow the SMILES beside them. *: point of attachment. hTyr(3S-OH,4S-OH,3'-OSO3H) = N[C@H](C(=O)O)[C@H](O)[C@@H](O)c1ccc(O)c(OS(=O)(=O)O)c1; Orn(4R-OH,5R-OH) = O=C([C@H](C[C@@H](O)[C@@H](O)N[*:3])N[*:1])[*:2]; Pro(3S-OH,4S-Me) = C[C@H]1CN[C@H](C(=O)O)[C@H]1O; X1 = CCCCCOc1ccc(-c2cc(-c3ccc(C(=O)*)cc3)no2)cc1; Gln(3R-OH) = NC(=O)C[C@@H](O)[C@H](N)C(=O)O; Hyp = O=C(O)[C@@H]1C[C@@H](O)CN1
Recorded S (sensitive) isolates, n (%) values for a group of compounds are listed next.
ENDPOINT_NAME: S (sensitive) isolates, n (%)

{"COMPOUND": "C[C@@H]1[C@H](O)[C@@H](C)/C=C/C=C/C=C/C=C/C=C/C=C/C=C/[C@H](O[C@@H]2O[C@H](C)[C@@H](O)[C@H](N)[C@@H]2O)C[C@@H]2O[C@](O)(C[C@@H](O)C[C@@H](O)[C@H](O)CC[C@@H](O)C[C@@H](O)CC(=O)O[C@H]1C)C[C@H](O)[C@H]2C(=O)O", "VALUE_REPORTED": "196 (97%)"}
{"COMPOUND": "OC(Cn1cncn1)(Cn1cncn1)c1ccc(F)cc1F", "VALUE_REPORTED": "199 (98.5%)"}
{"COMPOUND": "C[C@@H](c1ncncc1F)[C@](O)(Cn1cncn1)c1ccc(F)cc1F", "VALUE_REPORTED": "200 (99%)"}
{"COMPOUND": "CC[C@H](C)C[C@H](C)CCCCCCCCC(=O)N[C@H]1C[C@@H](O)[C@@H](NCCN)NC(=O)[C@@H]2[C@@H](O)CCN2C(=O)[C@H]([C@H](O)CCN)NC(=O)[C@H]([C@H](O)[C@@H](O)c2ccc(O)cc2)NC(=O)[C@@H]2C[C@@H](O)CN2C(=O)[C@H]([C@@H](C)O)NC1=O", "VALUE_REPORTED": "138 (100)"}
{"COMPOUND": "CCCCCOc1ccc(-c2cc(-c3ccc(C(=O)N[C@H]4C[C@@H](O)[C@@H](O)NC(=O)[C@@H]5[C@@H](O)[C@@H](C)CN5C(=O)[C@H]([C@H](O)CC(N)=O)NC(=O)[C@H]([C@H](O)[C@@H](O)c5ccc(O)c(OS(=O)(=O)O)c5)NC(=O)[C@@H]5C[C@@H](O)CN5C(=O)[C@H]([C@@H](C)O)NC4=O)cc3)no2)cc1 [micafungin] (X1-[Orn(4R-OH,5R-OH)]T[Hyp][hTyr(3S-OH,4S-OH,3'-OSO3H)][Gln(3R-OH)][Pro(3S-OH,4S-Me)]; lactam 1-C)", "VALUE_REPORTED": "136 (98.6%)"}
{"COMPOUND": "Nc1nc(=O)[nH]cc1F", "VALUE_REPORTED": "199 (98.5%)"}

----------
- Tested on: Other species of Candida
- Assay type: cell-based, Candida spp.
Starred links: 1 amine or outer side, 2 acyl side, 3 side chain; linkers in the order of their positions; H or OH if unused. Positions of bridges follow the written chain, without caps; N, C: chain ends. Non-standard residues stand in square brackets, D forms with d. Residues, ends and D or L forms follow the SMILES beside them. *: point of attachment. hTyr(3S-OH,4S-OH,3'-OSO3H) = N[C@H](C(=O)O)[C@H](O)[C@@H](O)c1ccc(O)c(OS(=O)(=O)O)c1; Orn(4R-OH,5R-OH) = O=C([C@H](C[C@@H](O)[C@@H](O)N[*:3])N[*:1])[*:2]; Pro(3S-OH,4S-Me) = C[C@H]1CN[C@H](C(=O)O)[C@H]1O; X1 = CCCCCOc1ccc(-c2cc(-c3ccc(C(=O)*)cc3)no2)cc1; Gln(3R-OH) = NC(=O)C[C@@H](O)[C@H](N)C(=O)O; Hyp = O=C(O)[C@@H]1C[C@@H](O)CN1
Recorded S (sensitive) isolates, n (%) values for a group of compounds are listed next.

{"COMPOUND": "OC(Cn1cncn1)(Cn1cncn1)c1ccc(F)cc1F", "S (sensitive) isolates, n (%)": "25 (100%)"}
{"COMPOUND": "C[C@@H]1[C@H](O)[C@@H](C)/C=C/C=C/C=C/C=C/C=C/C=C/C=C/[C@H](O[C@@H]2O[C@H](C)[C@@H](O)[C@H](N)[C@@H]2O)C[C@@H]2O[C@](O)(C[C@@H](O)C[C@@H](O)[C@H](O)CC[C@@H](O)C[C@@H](O)CC(=O)O[C@H]1C)C[C@H](O)[C@H]2C(=O)O", "S (sensitive) isolates, n (%)": "26 (100%)"}
{"COMPOUND": "CCCCCOc1ccc(-c2cc(-c3ccc(C(=O)N[C@H]4C[C@@H](O)[C@@H](O)NC(=O)[C@@H]5[C@@H](O)[C@@H](C)CN5C(=O)[C@H]([C@H](O)CC(N)=O)NC(=O)[C@H]([C@H](O)[C@@H](O)c5ccc(O)c(OS(=O)(=O)O)c5)NC(=O)[C@@H]5C[C@@H](O)CN5C(=O)[C@H]([C@@H](C)O)NC4=O)cc3)no2)cc1 [micafungin] (X1-[Orn(4R-OH,5R-OH)]T[Hyp][hTyr(3S-OH,4S-OH,3'-OSO3H)][Gln(3R-OH)][Pro(3S-OH,4S-Me)]; lactam 1-C)", "S (sensitive) isolates, n (%)": "18 (100%)"}
